Source of measurements: PubChem BioAssay (NCI)

Measured TGI values are reported for all entries that follow.
- Tested on: NCI/ADR-RES ovarian
- methodSummary: NCI tumour cell line growth inhibition, 48 h

Note to self: TGI recorded for COC(=O)c1nc(-c2nc(CCNC(=O)OC(C)(C)C)sc2Cl)sc1Cl was > 100 µM

The reported TGI of the compound CC1(C)CCC[C@]2(C)[C@@H]1CC[C@@]13O[C@@H]1C1=C(CO)C(=O)OC1=C[C@@H]23 was 37.7 µM

The measured TGI associated with N#Cc1c(N)nc2c(c1-c1ccc(Br)cc1)CSc1ccccc1-2 reads > 100 µM

For this compound ( CC(=O)/C=C/C1=C(c2cccs2)c2ccccc2CC1 ), measured TGI is 81.7 µM
